These measurements were taken from patent US10660877B2.

Molecular target: human TLR8 (Homo sapiens (Human), UniProt Q9NR97)
Sequence (Q9NR97 27-1041): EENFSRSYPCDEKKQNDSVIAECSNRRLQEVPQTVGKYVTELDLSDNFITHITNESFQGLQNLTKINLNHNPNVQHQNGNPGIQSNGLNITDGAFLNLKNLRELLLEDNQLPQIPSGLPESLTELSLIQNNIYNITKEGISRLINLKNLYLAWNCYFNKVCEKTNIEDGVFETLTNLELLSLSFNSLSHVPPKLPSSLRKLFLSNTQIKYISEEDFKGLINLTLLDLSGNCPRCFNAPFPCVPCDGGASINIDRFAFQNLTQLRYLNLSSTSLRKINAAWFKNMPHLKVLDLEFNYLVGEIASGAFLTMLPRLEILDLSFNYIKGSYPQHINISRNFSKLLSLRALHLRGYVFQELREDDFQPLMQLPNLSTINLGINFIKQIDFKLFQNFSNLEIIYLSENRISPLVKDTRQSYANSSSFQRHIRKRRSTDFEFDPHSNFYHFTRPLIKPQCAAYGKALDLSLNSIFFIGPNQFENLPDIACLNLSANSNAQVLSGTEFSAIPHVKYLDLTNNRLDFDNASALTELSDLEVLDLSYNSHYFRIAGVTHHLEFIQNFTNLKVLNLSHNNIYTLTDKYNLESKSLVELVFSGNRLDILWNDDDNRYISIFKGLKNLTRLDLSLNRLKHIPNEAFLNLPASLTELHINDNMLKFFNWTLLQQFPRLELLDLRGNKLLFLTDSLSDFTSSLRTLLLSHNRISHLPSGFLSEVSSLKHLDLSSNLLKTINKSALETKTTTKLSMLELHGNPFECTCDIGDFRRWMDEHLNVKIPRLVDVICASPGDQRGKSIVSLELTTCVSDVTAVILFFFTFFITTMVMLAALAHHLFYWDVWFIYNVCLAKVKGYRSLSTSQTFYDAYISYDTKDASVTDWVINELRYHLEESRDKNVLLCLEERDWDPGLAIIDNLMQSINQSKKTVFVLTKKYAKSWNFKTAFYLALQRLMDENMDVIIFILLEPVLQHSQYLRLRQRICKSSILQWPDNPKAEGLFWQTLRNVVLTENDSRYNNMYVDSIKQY
Test: TLR8 inhibition reporter assay (HEK-Blue cells, SEAP reporter, R848 stimulation)
Settings: TLR8 IC50, HEK-Blue cells, R848 15.9 μM

# Structure Notation, U, IC50
records = [
    ("Cc1cc(-c2[nH]c3ccc(C4CCN(Cc5cnc[nH]5)CC4)cc3c2C(C)C)c(C)cn1", "nM", 1.2),
]

* * *

Target: human TLR7 (Homo sapiens (Human), UniProt Q9NYK1)
Sequence (Q9NYK1 27-1049): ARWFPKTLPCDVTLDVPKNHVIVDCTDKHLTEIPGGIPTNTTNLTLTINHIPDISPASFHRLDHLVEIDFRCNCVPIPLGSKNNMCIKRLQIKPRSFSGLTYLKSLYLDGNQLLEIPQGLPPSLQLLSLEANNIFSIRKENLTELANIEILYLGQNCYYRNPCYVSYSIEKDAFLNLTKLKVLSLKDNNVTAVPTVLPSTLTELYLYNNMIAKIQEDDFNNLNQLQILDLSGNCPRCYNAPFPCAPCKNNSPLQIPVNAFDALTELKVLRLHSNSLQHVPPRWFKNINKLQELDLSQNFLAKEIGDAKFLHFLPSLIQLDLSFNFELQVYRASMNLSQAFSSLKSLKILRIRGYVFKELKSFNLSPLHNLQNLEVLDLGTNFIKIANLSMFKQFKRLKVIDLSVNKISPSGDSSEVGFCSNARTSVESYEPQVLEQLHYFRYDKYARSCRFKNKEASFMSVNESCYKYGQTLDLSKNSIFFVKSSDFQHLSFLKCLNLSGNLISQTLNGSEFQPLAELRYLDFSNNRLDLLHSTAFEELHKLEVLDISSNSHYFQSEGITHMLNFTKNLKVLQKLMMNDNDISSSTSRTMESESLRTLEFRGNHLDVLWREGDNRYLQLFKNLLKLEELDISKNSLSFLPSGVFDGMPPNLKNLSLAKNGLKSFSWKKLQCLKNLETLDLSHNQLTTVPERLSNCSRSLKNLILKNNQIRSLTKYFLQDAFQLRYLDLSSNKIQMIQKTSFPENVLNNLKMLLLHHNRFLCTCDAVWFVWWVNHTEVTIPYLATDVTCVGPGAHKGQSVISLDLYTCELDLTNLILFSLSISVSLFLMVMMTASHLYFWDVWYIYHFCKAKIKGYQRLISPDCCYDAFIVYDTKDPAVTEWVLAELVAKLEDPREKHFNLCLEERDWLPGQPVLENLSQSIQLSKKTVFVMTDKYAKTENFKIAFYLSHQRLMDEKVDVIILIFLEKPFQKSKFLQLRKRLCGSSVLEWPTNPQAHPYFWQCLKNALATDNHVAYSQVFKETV
Assay: TLR7 inhibition reporter assay (HEK-Blue cells, SEAP reporter, gardiquimod stimulation)
Type: cell-based
Conditions: HEK-Blue cells overexpressing human TLR7, gardiquimod 7.5 μM
# Criterion met = IC50 below 10 nM (exclusive); Criterion not met = IC50 at/above 10 nM

# Compound, Assigned Class
measured = [
    ("Cc1cc(-c2[nH]c3ccc(C4CCN(CC(O)C(F)(F)F)CC4)cc3c2C(C)C)cc(C)n1 (centres unmarked) [Example 316]", "Criterion not met"),
    ("Cc1cc(-c2[nH]c3ccc(C4CCN(C(=O)CCNc5ncccn5)CC4)cc3c2C(C)C)cc(C)n1", "Criterion met"),
    ("Cc1cc(-c2[nH]c3ccc(C4CCNCC4)c(F)c3c2C(C)C)cc(C)n1", "Criterion met"),
    ("Cc1cc(-c2[nH]c3ccc(C4CCN(C(=O)CN5CCN(CCO)CC5)CC4)cc3c2C(C)C)cc(C)n1", "Criterion met"),
    ("Cc1cc(-c2[nH]c3ccc(C4CCN(C5CCCNC5)CC4)cc3c2C(C)C)ccn1 (centres unmarked)", "Criterion met"),
    ("CCS(=O)(=O)N1CCC(c2ccc3[nH]c(-c4ccnc(C)c4)c(C(C)C)c3c2)CC1", "Criterion not met"),
    ("CNCCC(=O)N1CCC(c2ccc3[nH]c(-c4ccnc(C)c4)c(C(C)C)c3c2)CC1", "Criterion not met"),
    ("CCc1c(-c2ccnc(C)c2)[nH]c2ccc(C3CCN(C(=O)C4CCNC4)CC3)cc12 (centres unmarked) [Example 633]", "Criterion not met"),
]

* * *

Target: human TLR8 (Homo sapiens (Human), UniProt Q9NR97)
Test: TLR8 inhibition reporter assay (HEK-Blue cells, SEAP reporter, R848 stimulation);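 note: compounds tested from 0.05 nM to 50 µM, 22 h at 37 °C, SEAP measured with HEK-Blue Detection, inhibition relative to agonist plus DMSO versus a known inhibitor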
Conditions: read-out: TLR8 IC50, HEK-Blue cells overexpressing human TLR8, R848 15.9 μM
Parameter: IC50 (nM)

# Molecule, Assayed System, Measured
rows = [
    ("CC(C)c1c(-c2ccnc(N)c2)[nH]c2ccc(C3CCNCC3)cc12", "human TLR8 (Homo sapiens (Human), UniProt Q9NR97)", 28.8),
    ("Cc1cc(-c2[nH]c3ccc(C4CCN(C(=O)C(C)C)CC4)cc3c2C(C)C)ccn1", "human TLR8 (Homo sapiens (Human), UniProt Q9NR97)", 158),
    ("Cc1cc(-c2[nH]c3ccc(C4CCN(CC(=O)NC5CCOCC5)CC4)cc3c2C(C)C)cc(C)n1", "human TLR8 (Homo sapiens (Human), UniProt Q9NR97)", 6.1),
    ("Cc1nccc(-c2[nH]c3ccc(C4CCN(C(=O)C5CC(=O)N(C)C5)CC4)cc3c2C(C)C)c1F (centres unmarked)", "human TLR8 (Homo sapiens (Human), UniProt Q9NR97)", 48),
    ("Cc1cc(-c2[nH]c3ccc(C4CCN(CCC(N)=O)CC4)cc3c2C(C)C)cc(C)n1", "human TLR8 (Homo sapiens (Human), UniProt Q9NR97)", 3.2),
    ("CCc1c(-c2ccnc(OC)c2)[nH]c2ccc(C3CCN(C4CCN(CC5CC5)CC4)CC3)cc12", "human TLR8 (Homo sapiens (Human), UniProt Q9NR97)", 269),
    ("CCN1CCC(c2ccc3[nH]c(-c4cc(C)nc(C)c4)c(C(C)C)c3c2)CC1", "human TLR8 (Homo sapiens (Human), UniProt Q9NR97)", 3.7),
    ("Cc1cc(-c2[nH]c3ccc(C4CCN(Cc5c[nH]nc5C)CC4)cc3c2C(C)C)cc(C)n1", "human TLR8 (Homo sapiens (Human), UniProt Q9NR97)", 6.3),
]

* * *

Target: human TLR9 (Homo sapiens (Human))
Sequence (Q9NR96 26-1032): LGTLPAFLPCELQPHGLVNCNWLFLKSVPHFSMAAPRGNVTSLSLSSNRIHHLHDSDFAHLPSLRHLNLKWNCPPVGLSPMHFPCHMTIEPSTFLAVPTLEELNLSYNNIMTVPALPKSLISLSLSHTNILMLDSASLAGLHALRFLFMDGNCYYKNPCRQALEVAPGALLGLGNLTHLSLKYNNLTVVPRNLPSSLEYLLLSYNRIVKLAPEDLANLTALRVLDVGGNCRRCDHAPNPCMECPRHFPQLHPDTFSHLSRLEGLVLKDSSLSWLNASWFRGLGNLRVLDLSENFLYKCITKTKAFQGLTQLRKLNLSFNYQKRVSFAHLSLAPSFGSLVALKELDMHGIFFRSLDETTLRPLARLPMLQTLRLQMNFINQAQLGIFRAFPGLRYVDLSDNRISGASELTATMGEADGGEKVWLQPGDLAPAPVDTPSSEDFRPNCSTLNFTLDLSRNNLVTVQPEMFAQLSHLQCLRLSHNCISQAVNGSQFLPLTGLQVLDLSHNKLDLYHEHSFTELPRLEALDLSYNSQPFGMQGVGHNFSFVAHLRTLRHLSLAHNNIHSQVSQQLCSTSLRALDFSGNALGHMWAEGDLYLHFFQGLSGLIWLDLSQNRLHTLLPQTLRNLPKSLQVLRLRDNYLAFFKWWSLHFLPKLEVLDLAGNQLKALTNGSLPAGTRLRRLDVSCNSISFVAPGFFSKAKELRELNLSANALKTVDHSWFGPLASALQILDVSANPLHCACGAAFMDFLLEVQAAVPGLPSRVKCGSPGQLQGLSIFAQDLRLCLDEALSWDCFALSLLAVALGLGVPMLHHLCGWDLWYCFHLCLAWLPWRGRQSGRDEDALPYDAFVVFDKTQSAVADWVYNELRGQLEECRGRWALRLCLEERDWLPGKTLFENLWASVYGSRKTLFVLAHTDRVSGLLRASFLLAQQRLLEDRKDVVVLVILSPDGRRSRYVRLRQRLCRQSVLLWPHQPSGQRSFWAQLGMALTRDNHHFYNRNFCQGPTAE
Experiment: TLR9 inhibition reporter assay (HEK-Blue cells, SEAP reporter, ODN2006 stimulation);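 note: compounds tested over 0.05 nM to 50 µM, 22 h incubation, inhibition taken as SEAP signal drop from agonist plus DMSO wells toward a known inhibitor control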
Conditions: read-out: TLR9 IC50, HEK-Blue cells overexpressing human TLR9, ODN2006 5 nM
Parameter: IC50 (nM)

# Compound, U, Reading Qualifier, Measured
records = [
    ("COc1cc(-c2[nH]c3ccc(C4CCN(C5CCN(CC6CC6)CC5)CC4)cc3c2C(C)C)ccn1", "nM", "=", 563),
    ("Cc1cc(-c2[nH]c3ccc(C4CCN(C(=O)C5CCCO5)CC4)cc3c2C(C)C)cc(C)n1 (stereo not drawn)", "nM", "=", 27700),
    ("Cc1cc(-c2[nH]c3ccc(C4CCN(CC(=O)N(C)C)CC4)cc3c2C(C)C)ccn1", "nM", "=", 1060),
    ("Cc1cc(-c2[nH]c3ccc(C4CCN(CC(=O)N(C)C)CC4)cc3c2C(C)C)c(F)c(C)n1", "nM", "=", 7430),
    ("COC(C)CN1CCC(c2ccc3[nH]c(-c4cc(C)nc(C)c4)c(C(C)C)c3c2)CC1 (stereo not drawn)", "nM", "=", 396),
    ("Cc1cc(-c2[nH]c3ccc(C4CCN(C(=O)CN(C)CC(C)(C)O)CC4)cc3c2C(C)C)cc(C)n1", "nM", "=", 1060),
    ("Cc1cc(-c2[nH]c3ccc(C4CCN(Cc5cncs5)CC4)cc3c2C(C)C)c(F)cn1", "nM", "=", 6190),
    ("Cc1cc(-c2[nH]c3ccc(C4CCN(C(=O)[C@@H](N)Cc5c[nH]cn5)CC4)cc3c2C(C)C)ccn1", "nM", "=", 851),
    ("Cc1cc(-c2[nH]c3ccc(C4CCN(C(=O)[C@@H](N)CCCNC(N)=O)CC4)cc3c2C(C)C)ccn1", "nM", "=", 6560),
    ("Cc1cc(-c2[nH]c3ccc(C4CCN(C(=O)C(C)(C)N)CC4)cc3c2C(C)C)cc(C)n1", "nM", "=", 213),
    ("Cc1cc(-c2[nH]c3ccc(C4CCN(Cc5cncs5)CC4)cc3c2C(C)C)cc(C)n1", "nM", "=", 617),
    ("Cc1cc(-c2[nH]c3ccc(C4CCN(C(=O)CNC5CCCOC5)CC4)cc3c2C(C)C)cc(C)n1 (stereo not drawn)", "nM", "=", 539),
    ("Cc1cc(-c2[nH]c3ccc(C4CCN(CC(=O)NC5CCOCC5)CC4)cc3c2C(C)C)cc(C)n1", "nM", "=", 350),
    ("CCc1c(-c2ccnc(OC)c2)[nH]c2ccc(C3CCN(C4C[C@H]5CC[C@@H](C4)N5C)CC3)cc12 (stereo partly drawn)", "nM", "=", 1600),
    ("Cc1cc(-c2[nH]c3ccc(C4CCN(CC(=O)N5CC6(COC6)C5)CC4)cc3c2C(C)C)cc(C)n1", "nM", "=", 403),
    ("Cc1cc(-c2[nH]c3ccc(C4CCN(CC(=O)N(C)C)CC4)cc3c2C(C)C)c(C)cn1", "nM", "=", 4100),
    ("Cc1cc(-c2[nH]c3ccc(C4CCN(CC(=O)NC56C[C@@H]7C[C@@H](CC(O)(C7)C5)C6)CC4)cc3c2C(C)C)cc(C)n1", "nM", "=", 651),
    ("CCC(C)CN(CCO)CC(=O)N1CCC(c2ccc3[nH]c(-c4cc(C)nc(C)c4)c(C(C)C)c3c2)CC1 (stereo not drawn)", "nM", "=", 1070),
    ("Cc1cc(-c2[nH]c3ccc(C4CCN(C)CC4)cc3c2C(C)C)c(F)cn1", "nM", "=", 3690),
    ("CC(=O)N1CCC(c2ccc3[nH]c(-c4cc(C)nc(C)c4)c(C(C)C)c3c2)CC1", "nM", "=", 35100),
    ("CCc1c(-c2ccnc(C)c2)[nH]c2ccc(C3CCN(C(=O)C4CCNC4)CC3)cc12 (stereo not drawn) [Example 595]", "nM", "=", 348),
    ("Cc1nc(C)c(C)c(-c2[nH]c3ccc(C4CCNCC4)cc3c2C(C)C)c1C", "nM", "=", 546),
    ("Cc1cc(-c2[nH]c3ccc(C4CCN(C(=O)CN5C[C@@H](F)C[C@H]5CO)CC4)cc3c2C(C)C)cc(C)n1", "nM", "=", 2530),
    ("Cc1cc(-c2[nH]c3ccc(C4CCN(C5CCOC6CCCC65)CC4)cc3c2C(C)C)cc(C)n1 (stereo not drawn)", "nM", "=", 534),
    ("Cc1cc(-c2[nH]c3ccc(C4CCN(C(=O)CS(C)(=O)=O)CC4)cc3c2C(C)C)ccn1", "nM", "=", 1850),
    ("Cc1cc(-c2[nH]c3cc(C(F)(F)F)c(C4CCNCC4)cc3c2C(C)C)ccn1", "nM", "=", 1160),
    ("Cc1cc(-c2[nH]c3ccc(C4CCN(C(=O)C5CC(=O)N(C)C5)CC4)cc3c2C(C)C)ccn1 (stereo not drawn) [Example 566]", "nM", ">", 50000),
    ("Cc1cc(-c2[nH]c3ccc(C4CCN(C(=O)C5CCN(Cc6ccccc6)C5)CC4)cc3c2C(C)C)ccn1 (stereo not drawn)", "nM", "=", 1060),
    ("CCC(CC)NCC(=O)N1CCC(c2ccc3[nH]c(-c4cc(C)nc(C)c4)c(C(C)C)c3c2)CC1", "nM", "=", 544),
    ("Cc1cc(-c2[nH]c3ccc(C4CCN(C(=O)CN(C)C)CC4)cc3c2C2CC2)cc(C)n1", "nM", "=", 142),
]
